- test.target: activated hepsin (Homo sapiens, UniProt P05981)
- Construct: purchased R&D Systems 4776-SE-010
- Sequence (P05981 163-417 limits assumed): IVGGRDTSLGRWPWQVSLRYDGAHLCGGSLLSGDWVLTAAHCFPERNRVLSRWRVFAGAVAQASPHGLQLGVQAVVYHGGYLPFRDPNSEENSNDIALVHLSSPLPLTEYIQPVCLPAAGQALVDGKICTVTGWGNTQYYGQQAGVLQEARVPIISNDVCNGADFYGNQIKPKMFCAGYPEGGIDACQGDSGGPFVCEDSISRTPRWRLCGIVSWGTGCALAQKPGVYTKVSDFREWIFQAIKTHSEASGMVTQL
- Sequence (P05981 1-162 partner limits assumed): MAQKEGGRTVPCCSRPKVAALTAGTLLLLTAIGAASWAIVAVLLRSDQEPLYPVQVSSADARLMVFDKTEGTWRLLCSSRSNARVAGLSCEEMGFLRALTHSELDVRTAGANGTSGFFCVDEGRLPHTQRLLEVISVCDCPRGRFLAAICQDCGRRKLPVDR
- experiment.notes: Fluorescent kinetic enzyme assay of hepsin activity (Boc-QAR-AMC)
- Assay type: biochemical
- measurement.parameters: Table 6; read-out: Hepsin IC50
Starred links: 1 amine or outer side, 2 acyl side, 3 side chain; linkers in the order of their positions; H or OH if unused. Non-standard residues stand in square brackets, D forms with d. Residues, ends and D or L forms follow the SMILES beside them. X6 = N=C(N)NCCC[C@H](N[*:1])C(=O)c1nc2ccc(C(=O)[*:2])cc2s1
Record form. Attribute: pIC50. Fill in for each entry.
One number for each entry, as −log10 of the molar value.

[[record]]
molecule = "CC(=O)N[C@@H](CO)C(=O)N[C@@H](CCCCN)C(=O)N[C@@H](CC(C)C)C(=O)N[C@@H](CCCNC(=N)N)C(=O)c1nc2ccc(C(=O)N[C@H](C(N)=O)C(C)C)cc2s1 [ZFH7116, Ac-SKLR kbt V-amide] (Ac-SKL[X6]V-NH2)"
recorded_result = 9.30


Consider the additional molecule presented here.
Incoming: Please give measured pIC50 of the following entry: CC(=O)N[C@H]1CC(=O)NCCCC[C@@H](C(=O)N[C@@H](CCCNC(=N)N)C(=O)c2nc3ccccc3s2)NC(=O)[C@H](CC(C)C)NC1=O
Outgoing: 8.00

---

- test.target: matriptase (Homo sapiens)
- Construct: purchased R&D Systems 3946-SE-010
- Sequence (Q9Y5Y6 615-855 limits assumed): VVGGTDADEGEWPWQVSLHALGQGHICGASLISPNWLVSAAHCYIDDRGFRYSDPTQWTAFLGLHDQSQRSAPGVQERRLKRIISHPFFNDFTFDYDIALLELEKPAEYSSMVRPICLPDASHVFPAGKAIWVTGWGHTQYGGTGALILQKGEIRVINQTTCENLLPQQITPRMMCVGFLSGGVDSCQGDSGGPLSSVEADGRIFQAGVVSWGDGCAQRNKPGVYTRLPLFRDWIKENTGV
- experiment.notes: Fluorescent kinetic enzyme assay of matriptase activity (Boc-QAR-AMC)
- Assay type: biochemical
- measurement.parameters: Table 2; read-out: Matriptase (IC50 nM)
measurement.type: IC50 (nM)
Answers are plain numbers, in nM.

[[record]]
compound = "CC(=O)N[C@H]1Cc2cn(nn2)CCCC[C@H](C(=O)N[C@@H](CCCNC(=N)N)C(=O)c2nc3ccccc3s2)NC(=O)[C@H](CC(C)C)NC1=O [VD4090]"
measurement_type = "IC50"
unit_of_measurement = "nM"
recorded_result = 39.1

[[record]]
compound = "CC(=O)N[C@H]1CC(=O)NCCCC[C@@H](C(=O)N[C@@H](CCCNC(=N)N)C(=O)c2nc3ccccc3s2)NC(=O)[C@H](CC(N)=O)NC1=O [VD3166]"
measurement_type = "IC50"
unit_of_measurement = "nM"
recorded_result = 3.8

[[record]]
compound = "CC(=O)N[C@H]1Cc2ccc(cc2)OCCCC[C@@H](C(=O)N[C@@H](CCCNC(=N)N)C(=O)c2nc3ccccc3s2)NC(=O)[C@H](Cc2c[nH]c3ccccc23)NC1=O [VD4158]"
measurement_type = "IC50"
unit_of_measurement = "nM"
recorded_result = 56.8

[[record]]
compound = "CC(=O)N[C@@H](Cc1ccc(O)c([N+](=O)[O-])c1)C(=O)N[C@@H](CC(C)C)C(=O)N[C@@H](Cc1ccc(Br)cc1)C(=O)N[C@H](CCCNC(=N)N)C(=O)c1nc2ccccc2s1 [VD4112A]"
measurement_type = "IC50"
unit_of_measurement = "nM"
recorded_result = 111

[[record]]
compound = "CC(=O)N[C@H]1C/C=C\\COc2ccc(cc2)C[C@@H](C(=O)N[C@@H](CCCNC(=N)N)C(=O)c2nc3ccccc3s2)NC(=O)[C@H](CC(C)C)NC1=O [VD4051]"
measurement_type = "IC50"
unit_of_measurement = "nM"
recorded_result = 80.2


I would be grateful if you could provide IC50 for each of the following entries.
1. CC(=O)N[C@H]1Cc2ccc(cc2)OCCCC[C@@H](C(=O)N[C@@H](CCCNC(=N)N)C(=O)c2nc3ccccc3s2)NC(=O)[C@H](Cc2ccccc2)NC1=O [VD4111]
2. CC(=O)N[C@H]1CC(=O)NCCCC[C@@H](C(=O)N[C@@H](CCCNC(=N)N)C(=O)c2nc3ccccc3s2)NC(=O)[C@H](Cc2ccc(O)cc2)NC1=O [VD3158]
3. CC(=O)N[C@H]1CCCCNC(=O)CCC(C(=O)N[C@@H](CCCNC(=N)N)C(=O)c2nc3ccccc3s2)NC(=O)[C@H](CCCNC(=N)N)NC1=O (some centres unmarked) [VD2109B]
4. CC(=O)N[C@H]1CCCCNC(=O)CC[C@@H](C(=O)N[C@@H](CCCNC(=N)N)C(=O)c2nc3ccccc3s2)NC(=O)[C@H](CCCNC(=N)N)NC1=O [VD2109]

Outgoing:
1. 17
2. 6.1
3. 0.07
4. 0.13

I would be grateful if you could provide IC50 for each of the following entries.
1. CC(=O)N[C@H]1Cc2ccc(cc2)OC/C=C\CNC(=O)CC[C@@H](C(=O)N[C@@H](CCCNC(=N)N)C(=O)c2nc3ccccc3s2)NC(=O)[C@H](CC(C)C)NC1=O [VD4018]
2. CC(=O)N[C@H]1CCCCn2cc(nn2)C[C@H](C(=O)N[C@@H](CCCNC(=N)N)C(=O)c2nc3ccccc3s2)NC(=O)[C@H](CC(C)C)NC1=O [VD4118]

Outgoing:
9.84
19.5
